Ki listing for selected molecules.
Target: GSK3β (H350L) (Homo sapiens (Human))
Sequence (P49841 whole entry, stated change not applied): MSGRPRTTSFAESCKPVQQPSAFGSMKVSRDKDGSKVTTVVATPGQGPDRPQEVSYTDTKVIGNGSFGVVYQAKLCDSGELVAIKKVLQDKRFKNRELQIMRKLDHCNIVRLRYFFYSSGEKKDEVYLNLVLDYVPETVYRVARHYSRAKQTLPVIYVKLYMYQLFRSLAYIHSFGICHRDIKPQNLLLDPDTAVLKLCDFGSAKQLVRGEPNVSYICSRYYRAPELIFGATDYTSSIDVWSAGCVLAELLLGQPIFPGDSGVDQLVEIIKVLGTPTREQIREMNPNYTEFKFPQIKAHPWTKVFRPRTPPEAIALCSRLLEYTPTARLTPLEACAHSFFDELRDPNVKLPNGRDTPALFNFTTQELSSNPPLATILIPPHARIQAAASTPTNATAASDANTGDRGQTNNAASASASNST
Experiment: biochemical
Conditions: GSK3β Ki (nM)
Give the value in nM but do not write nM after it.

CC(CC(F)F)NC(=O)O[C@@H]1CC[C@H](c2cc(NC(=O)Cc3cnn(C)c3)n[nH]2)C1 (single isomer, unassigned); 45.9
COc1ncc(CC(=O)Nc2cc([C@H]3CC[C@@H](OC(=O)NC4(C)CCOC4)C3)[nH]n2)s1 (single isomer, unassigned) [Example 126]; 26.6
CCC(NC(=O)O[C@@H]1CC[C@H](c2cc(NC(=O)Cc3cc(C)no3)n[nH]2)C1)C(F)(F)F (single isomer, unassigned) [Example 397]; 155
CC(CC(F)(F)F)NC(=O)O[C@@H]1CC[C@H](c2cc(NC(=O)Cc3ccno3)n[nH]2)C1 (single isomer, unassigned); 12.9
CCC(CO)CNC(=O)O[C@@H]1CC[C@H](c2cc(NC(=O)Cc3ccc(OC)nc3)n[nH]2)C1 (single isomer, unassigned) [Example 533]; 1.41
CC1(NC(=O)O[C@@H]2CC[C@H](c3cc(NC(=O)Cc4cnc(C(F)(F)F)cn4)n[nH]3)C2)CCOC1 (single isomer, unassigned) [Example 493]; 157
CCCNC(=O)O[C@H]1CC[C@@H](c2cc(NC(=O)C3COc4ccccc43)n[nH]2)C1 (single isomer, unassigned) [Example 25]; 135
C[C@H](F)[C@H](C)NC(=O)O[C@@H]1CC[C@H](c2cc(NC(=O)Cc3cnn(C)c3)n[nH]2)C1 (single isomer, unassigned); 74.2

I am curious: what Ki value has been reported for CC(CC(F)(F)F)N(C)C(=O)O[C@@H]1CC[C@H](c2cc(NC(=O)Cc3cnn(C)c3)n[nH]2)C1 (single isomer, unassigned) [Example 414] ?
3.44

Give its Ki value. Item: CCC(CO)CNC(=O)O[C@@H]1CC[C@H](c2cc(NC(=O)Cc3cnc(C)s3)n[nH]2)C1 (single isomer, unassigned) [Example 529]
3.92

Given the entry Cc1cnc(CC(=O)Nc2cc([C@H]3CC[C@@H](OC(=O)NC(C)CC(F)F)C3)[nH]n2)o1 (single isomer, unassigned) , report its measured Ki.
18

Data origin: patent US11014911B2
